Record form. Attribute: pIC50. Fill in for each entry.
# experimental.system: hNav1.7 (Homo sapiens (Human), UniProt Q15858)
# Sequence (Q15858 other isoform, or with tags, fused parts or gaps): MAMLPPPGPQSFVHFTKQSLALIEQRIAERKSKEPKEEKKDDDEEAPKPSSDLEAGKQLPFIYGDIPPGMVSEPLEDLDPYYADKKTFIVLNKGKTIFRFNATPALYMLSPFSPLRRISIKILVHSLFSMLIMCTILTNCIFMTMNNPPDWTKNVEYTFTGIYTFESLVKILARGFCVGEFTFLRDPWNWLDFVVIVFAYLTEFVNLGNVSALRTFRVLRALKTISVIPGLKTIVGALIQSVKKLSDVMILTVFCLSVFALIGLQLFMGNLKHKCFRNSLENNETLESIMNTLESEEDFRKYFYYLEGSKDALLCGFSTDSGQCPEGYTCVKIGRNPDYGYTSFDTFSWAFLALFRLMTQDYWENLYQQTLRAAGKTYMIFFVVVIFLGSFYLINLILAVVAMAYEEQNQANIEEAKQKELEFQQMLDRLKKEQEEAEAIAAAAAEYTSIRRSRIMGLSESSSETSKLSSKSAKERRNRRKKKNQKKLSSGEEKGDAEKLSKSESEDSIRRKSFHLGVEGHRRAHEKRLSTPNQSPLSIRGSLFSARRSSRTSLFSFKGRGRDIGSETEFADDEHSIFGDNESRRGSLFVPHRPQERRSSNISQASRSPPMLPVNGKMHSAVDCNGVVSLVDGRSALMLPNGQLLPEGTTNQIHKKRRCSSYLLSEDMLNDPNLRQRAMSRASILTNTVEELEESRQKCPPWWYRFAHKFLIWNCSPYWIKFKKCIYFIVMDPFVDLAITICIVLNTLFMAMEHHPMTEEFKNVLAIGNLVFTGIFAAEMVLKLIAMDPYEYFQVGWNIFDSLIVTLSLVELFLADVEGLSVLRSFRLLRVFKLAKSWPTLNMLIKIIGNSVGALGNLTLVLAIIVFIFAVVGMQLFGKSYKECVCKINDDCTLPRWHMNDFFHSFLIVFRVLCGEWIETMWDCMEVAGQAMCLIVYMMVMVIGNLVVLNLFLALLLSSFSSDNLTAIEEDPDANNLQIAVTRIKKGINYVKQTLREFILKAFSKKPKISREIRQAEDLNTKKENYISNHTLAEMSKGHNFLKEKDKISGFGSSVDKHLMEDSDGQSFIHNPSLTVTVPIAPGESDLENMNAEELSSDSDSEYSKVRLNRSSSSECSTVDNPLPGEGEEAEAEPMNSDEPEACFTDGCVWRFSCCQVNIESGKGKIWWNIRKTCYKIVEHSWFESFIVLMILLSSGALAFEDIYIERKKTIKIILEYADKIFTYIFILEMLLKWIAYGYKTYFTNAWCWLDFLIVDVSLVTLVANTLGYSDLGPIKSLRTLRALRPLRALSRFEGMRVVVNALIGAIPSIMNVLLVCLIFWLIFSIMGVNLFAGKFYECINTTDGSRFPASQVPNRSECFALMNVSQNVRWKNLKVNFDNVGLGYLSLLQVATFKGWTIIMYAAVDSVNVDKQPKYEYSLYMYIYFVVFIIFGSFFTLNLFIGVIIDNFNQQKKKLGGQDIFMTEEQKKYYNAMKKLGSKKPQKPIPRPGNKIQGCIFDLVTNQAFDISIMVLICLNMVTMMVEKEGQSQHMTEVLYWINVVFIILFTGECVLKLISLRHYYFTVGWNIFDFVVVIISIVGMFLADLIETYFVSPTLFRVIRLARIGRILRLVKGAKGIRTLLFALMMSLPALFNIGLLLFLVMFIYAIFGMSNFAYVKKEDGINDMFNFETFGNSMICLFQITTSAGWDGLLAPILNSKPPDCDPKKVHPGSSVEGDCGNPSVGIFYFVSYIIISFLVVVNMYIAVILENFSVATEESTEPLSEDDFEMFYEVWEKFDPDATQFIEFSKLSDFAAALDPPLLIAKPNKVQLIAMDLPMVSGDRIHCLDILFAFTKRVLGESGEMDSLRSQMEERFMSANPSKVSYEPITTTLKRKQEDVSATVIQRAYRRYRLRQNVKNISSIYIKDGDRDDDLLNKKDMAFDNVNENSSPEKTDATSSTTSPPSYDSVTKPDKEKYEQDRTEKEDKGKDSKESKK
# Sequence (Q07699 19-218 partner): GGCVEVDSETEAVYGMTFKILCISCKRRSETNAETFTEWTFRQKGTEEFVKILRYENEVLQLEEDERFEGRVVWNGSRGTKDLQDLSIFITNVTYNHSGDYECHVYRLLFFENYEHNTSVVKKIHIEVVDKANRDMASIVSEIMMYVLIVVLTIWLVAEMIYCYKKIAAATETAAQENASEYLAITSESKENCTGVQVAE
# procedure.summary: Tritiated sulfonamide competitive binding to membranes from cells expressing hNav1.7 and the β1 subunit;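 further: Filter-bound radioactivity counted by liquid scintillation, nonspecific binding defined with excess unlabelled ligand, IC50 fitted to percent inhibition of specific binding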
# settings: read-out: Ligand Binding Assay; 100 pM [3H]compound, membranes with hNav1.7 and β1 subunit, 18 h, room temperature
Where a name gives a salt, the structure may show the parent alone.
Keep in mind that pIC50 stands for -log10 of concentration in molar terms.

For CS(=O)(=O)NC(=O)c1cc(C2CC2)c(OCC2CN([C@@H](c3ccccc3)c3ccc(F)cc3)C2)cc1F the compound record lists pIC50 as 8.04

For record CS(=O)(=O)NC(=O)c1cc(C2CC2)c(OCC2CCN(C(=O)c3ccccc3)CC2)cc1F the listed pIC50 is 5.49

Item: O=C(NS(=O)(=O)N1CCC1)c1cc(C2CC2)c(O[C@H]2CCCN(Cc3ccccc3)C2)cc1F | pIC50: 5.39

pIC50 reported for this compound O=C(NS(=O)(=O)C1CC1)c1cc(C2CC2)c(OCC2CN(c3cc(C(F)(F)F)c(Cl)cn3)C2)cc1F : 7.93

Given item C[C@@H](c1ccc(OC(F)(F)F)cc1)N1CCC(C)(COc2cc(F)c(C(=O)NS(C)(=O)=O)cc2C2CC2)CC1 (single isomer, unassigned) , the value recorded as its pIC50 is 8.00

Looking up C[C@H](c1ccc(Cl)c(Cl)c1)N1CCC(C)(COc2cc(F)c(C(=O)NS(C)(=O)=O)cc2C2CC2)CC1 (single isomer, unassigned) , I see its pIC50 listed as 8.11

Entry CS(=O)(=O)NC(=O)c1cc(C2CC2)c(OCC2CCN(Cc3cc(Cl)cc(Cl)c3)CC2)cc1F — recorded pIC50 = 8.31

The compound listed as Cc1nc(CN2CCC(COc3cc(F)c(C(=O)NS(=O)(=O)C4CC4)cc3C3CC3)CC2)cs1 [Example 354, trifluoroacetic acid salt] has a reported pIC50 of 5.57

The recorded pIC50 for CS(=O)(=O)NC(=O)c1cc(C2CC2)c(OC2CC3(C2)CN(Cc2ccc(F)cc2Cl)C3)cc1F [Example 320, trifluoroacetic acid salt] is 6.67

// pIC50 value for Cn1nc(C(F)(F)F)c(CN2CCC(COc3cc(F)c(C(=O)NS(=O)(=O)C4CC4)cc3C3CC3)CC2)c1Cl [Example 357, trifluoroacetic acid salt] : 7.89

The recorded pIC50 for entry CS(=O)(=O)NC(=O)c1cc(C2CC2)c(OCC2CCN(Cc3ccc(Cl)c(F)c3)CC2)cc1F equals 7.95

The measured pIC50 associated with CS(=O)(=O)NC(=O)c1cc(C2CC2)c(O[C@@H]2CCCN(Cc3cccc(-c4ccccc4)c3)C2)cc1F [Example 443, trifluoroacetic acid salt] reads 8.47

What the record says about O=C(NS(=O)(=O)C1CC1)c1cc(C2CC2)c(OCC2CCN(S(=O)(=O)c3ccc(C(F)(F)F)cc3)CC2)cc1F : pIC50 is 7.71

Measured pIC50, CS(=O)(=O)NC(=O)c1cc(C2CC2)c(OCC2CCN(S(=O)(=O)c3cc(Cl)cc(Cl)c3)CC2)cc1F : 8.07

For record COC[C@@H](c1cc(Cl)cc(Cl)c1)N1CCC[C@@H](Oc2cc(F)c(C(=O)NS(C)(=O)=O)cc2C2CC2)C1 the listed pIC50 is 8.22

Just so you know, measured pIC50 for CS(=O)(=O)NC(=O)c1cc(C2CC2)c(CN2[C@@H]3CC[C@H]2C[C@@H](Oc2cc(Cl)cc(OC(F)(F)F)c2)C3)cc1F [Example 560, trifluoroacetic acid salt] came out at 8.55

Consider CS(=O)(=O)NC(=O)c1cc(C2CC2)c(OCC2CCN(S(=O)(=O)c3ccc(F)c(Cl)c3)CC2)cc1F . Its measured pIC50 is 7.39

CS(=O)(=O)NC(=O)c1cc(C2CC2)c(OCC2CCN(Cc3cc(C(F)(F)F)cc(C4CC4)n3)CC2)cc1F yielded pIC50 of 8.22

pIC50 reported for this compound CCS(=O)(=O)NC(=O)c1cc(C2CC2)c(OCC2CCN([C@@H](COC)c3cc(Cl)cc(Cl)c3)CC2)cc1F (single isomer, unassigned) : 8.21

Per the record, CCS(=O)(=O)NC(=O)c1cc(C2CC2)c(OCC2CCN([C@H](c3cc(Cl)cc(Cl)c3)C(F)F)CC2)cc1F has pIC50 of 8.09

Lab book: pIC50 of CC(c1ccc(OC(F)(F)F)cc1)N1CCC(COc2cc(F)c(C(=O)NS(C)(=O)=O)cc2C2CC2)CC1 (stereo not shown) noted as 7.68

Entry CS(=O)(=O)NC(=O)c1cc(C2CC2)c(O[C@@H]2CCCN(C(=O)c3cc(Cl)cc(Cl)c3)C2)cc1F ; pIC50 = 5.74

The origin of these recorded values is patent US9546164B2.
